Measured Relative potency (%) by item
Experiment: Relative potency of penetrating peptides as tested in mice (Example 3)
Type: in vivo
Conditions: IBW-002 = 100
Please state the figure in %; there is no need to write the unit.

AcMYDITLALAGICQSARIVQQLAGGKGGKNH2 [IBW-002V3] | 77
AcNYHDIVLALAGVCQSARLVHQLAGGKGGKNH2 [IBW-006] | 77
AcNYFLVNLAFAEASMAAFNTVVNFGGKGGKNH2 (Ac-NYFLVNLAFAEASMAAFNTVVNFGGKGGK-NH2) [IBW-007] | 66
AcNYFIVNLALADLCMAAFNAAFNFGGGKGGKNH2 (Ac-NYFIVNLALADLCMAAFNAAFNFGGGKGGK-NH2) [IBW-004] | 63

Ask: For the substance AcMYYDITLALAGICQSARLVQQLAGGGKGGKNH2 (Ac-MYYDITLALAGICQSARLVQQLAGGGKGGK-NH2) [IBW-002V2] , what Relative potency (%) is on record?
Result: 80

Ask: For the substance AcMNYYDITLALAGICQSARLVQQLAGGGKGGKNH2 (Ac-MNYYDITLALAGICQSARLVQQLAGGGKGGK-NH2) [IBW-002V1] , what Relative potency (%) is on record?
Result: 73

Ask: For the substance AcMRNLTRTSLLLAGLCTAAQMVFVGGGKGGKNh2 (Ac-MRNLTRTSLLLAGLCTAAQMVFVGGGKGGK-NH2) [IBW-005] , what Relative potency (%) is on record?
Result: 51

Ask: For the substance AcNLPPIVLAVIGICAAVFLLQQYVGGGKGGKNH2 (Ac-NLPPIVLAVIGICAAVFLLQQYVGGGKGGK-NH2) [IBW-003] , what Relative potency (%) is on record?
Result: 37

Ask: For the substance Ac-NYYDITLALAGICQSARLVQQLAGGGKGGK-NH2 (Ac-NYYDITLALAGICQSARLVQQLAGGGKGGK-NH2; also: 125I label) [IBW-002, ^125I-labeled using the Bolton Hunter Reagent for in vivo tests] , what Relative potency (%) is on record?
Result: 100

Entry source: patent US20050215478A1
